- Test system: Staphylococcus aureus
- Method: Antibacterial activity against penicillin-susceptible Staphylococcus aureus ATCC 25923 after 24 hrs by broth microdilution method
- Assay type: functional
- Condition details: ATCC 25923, 24 h
Answer each item with its documented MIC.
Could you give me the number in µg/mL? Just the number is fine.

Entry under test: Cc1cc(-c2ccc(C(F)(F)F)cc2)cc2c3ccccc3c[n+](C)c12.[Cl-] . Its MIC was 0.06

For this compound ( O=C(O)c1cn(C2CC2)c2cc(N3CCNCC3)c(F)cc2c1=O ), measured MIC is 8

The compound identified as C[n+]1cc2ccccc2c2cc(-c3ccc(-c4ccccc4)cc3)ccc21.[Cl-] registered its MIC at 8

Entry under test: COc1ccc(-c2ccc3c(c2)c2ccccc2c[n+]3C)cc1.[Cl-] . Its MIC was 4
